# target of assay: NaV 1.8 channel (Homo sapiens)
# Sequence (Q9Y5Y9 whole entry): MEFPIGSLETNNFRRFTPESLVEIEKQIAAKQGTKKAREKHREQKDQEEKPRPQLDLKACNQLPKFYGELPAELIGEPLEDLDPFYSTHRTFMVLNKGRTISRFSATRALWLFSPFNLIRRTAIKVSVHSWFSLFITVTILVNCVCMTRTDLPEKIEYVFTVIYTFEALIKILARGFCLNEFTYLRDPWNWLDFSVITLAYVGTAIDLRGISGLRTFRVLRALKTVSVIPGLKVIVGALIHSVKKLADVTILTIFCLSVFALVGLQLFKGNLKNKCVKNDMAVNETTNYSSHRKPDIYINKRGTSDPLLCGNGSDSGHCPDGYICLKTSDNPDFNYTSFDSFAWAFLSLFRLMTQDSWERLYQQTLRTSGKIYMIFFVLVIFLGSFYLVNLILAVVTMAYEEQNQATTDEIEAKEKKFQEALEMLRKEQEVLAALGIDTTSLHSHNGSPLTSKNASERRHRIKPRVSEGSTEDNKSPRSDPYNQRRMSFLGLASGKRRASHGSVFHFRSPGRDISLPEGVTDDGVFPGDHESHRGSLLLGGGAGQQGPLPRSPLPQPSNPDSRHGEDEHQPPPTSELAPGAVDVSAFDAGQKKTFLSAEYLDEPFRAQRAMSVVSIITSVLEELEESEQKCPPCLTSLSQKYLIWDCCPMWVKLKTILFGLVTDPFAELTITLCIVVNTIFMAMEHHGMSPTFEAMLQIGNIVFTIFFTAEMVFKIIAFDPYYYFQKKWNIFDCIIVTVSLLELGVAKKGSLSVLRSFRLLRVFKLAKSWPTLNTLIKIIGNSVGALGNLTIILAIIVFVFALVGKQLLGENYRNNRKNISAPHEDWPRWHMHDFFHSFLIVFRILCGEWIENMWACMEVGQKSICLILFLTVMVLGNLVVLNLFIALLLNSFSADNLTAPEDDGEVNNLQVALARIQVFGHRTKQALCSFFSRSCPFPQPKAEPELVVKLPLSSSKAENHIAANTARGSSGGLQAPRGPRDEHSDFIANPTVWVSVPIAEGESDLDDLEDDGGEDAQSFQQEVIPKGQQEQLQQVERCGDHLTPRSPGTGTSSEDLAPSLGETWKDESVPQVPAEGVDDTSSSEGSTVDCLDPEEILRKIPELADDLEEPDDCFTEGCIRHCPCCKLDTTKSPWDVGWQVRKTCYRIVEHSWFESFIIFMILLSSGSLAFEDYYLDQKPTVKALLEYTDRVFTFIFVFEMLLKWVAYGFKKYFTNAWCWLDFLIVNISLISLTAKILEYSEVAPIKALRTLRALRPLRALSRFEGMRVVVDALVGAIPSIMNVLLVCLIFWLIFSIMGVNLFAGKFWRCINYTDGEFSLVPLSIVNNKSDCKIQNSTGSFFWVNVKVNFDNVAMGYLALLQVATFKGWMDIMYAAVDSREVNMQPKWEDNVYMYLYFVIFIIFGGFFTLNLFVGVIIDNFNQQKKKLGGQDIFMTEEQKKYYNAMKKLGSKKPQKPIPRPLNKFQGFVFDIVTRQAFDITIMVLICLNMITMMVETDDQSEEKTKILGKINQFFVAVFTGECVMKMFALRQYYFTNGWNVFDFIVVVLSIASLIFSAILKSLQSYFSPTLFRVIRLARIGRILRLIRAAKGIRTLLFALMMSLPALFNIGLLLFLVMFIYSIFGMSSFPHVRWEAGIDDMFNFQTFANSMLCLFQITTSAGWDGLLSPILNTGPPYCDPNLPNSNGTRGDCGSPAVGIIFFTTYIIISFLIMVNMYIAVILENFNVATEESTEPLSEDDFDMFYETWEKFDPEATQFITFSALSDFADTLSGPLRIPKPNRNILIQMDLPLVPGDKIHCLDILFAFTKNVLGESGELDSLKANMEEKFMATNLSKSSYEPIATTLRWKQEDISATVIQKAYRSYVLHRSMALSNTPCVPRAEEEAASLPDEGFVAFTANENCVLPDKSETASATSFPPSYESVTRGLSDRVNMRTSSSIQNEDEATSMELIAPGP
# experiment notes: Activity against NaV 1.8 channel (optical membrane potential assay)
property label: IC50

Worked examples, 5 compounds total:
The recorded IC50 with NaV 1.8 channel (Homo sapiens) for CC[C@@H](C)[C@@H](O)C(=O)N1CCN(c2nc(-c3ccccc3O)nc3cc(C)ccc23)CC1 [Example 176] was > 10 µM

Entry Cc1ccc2c(N3CCC(NC(=O)O[C@@H]4CO[C@H]5OCC[C@H]54)CC3)nc(-c3ccccc3O)nc2c1 [Example 280] ; assay system NaV 1.8 channel (Homo sapiens); IC50 recorded at 2 to 10 µM

Item: O=C(NC[C@@H]1CCN(c2nc(-c3ccccc3O)nc3ccc(F)cc23)C1)O[C@@H]1CCOC1 [Example 355] | System: NaV 1.8 channel (Homo sapiens) | IC50: > 10 µM

Value (IC50, NaV 1.8 channel (Homo sapiens)) for record Cc1ccc2c(N3CCN(C(=O)[C@H](O)CC(C)C)C[C@@H]3C(C)C)nc(-c3ccccc3O)nc2c1 [Example 155] = > 10 µM

Summary line: Cc1ccc2c(N3CC[C@@H](CNC(=O)OCC(C)(C)C)C3)nc(-c3ccccc3O)nc2c1 [Example 369] , NaV 1.8 channel (Homo sapiens), reported IC50 = < 2 µM

Continuing:
Form: item Cc1ccc2c(N3CCN(C(=O)[C@H](O)CC(N)=O)CC3)nc(-c3ccccc3O)nc2c1 [Example 154] ; test system NaV 1.8 channel (Homo sapiens); IC50: > 10 µM

Noted IC50 for Cc1ccc2c(N3CCC(NC(=O)[C@H](O)CC(C)C)CC3)nc(-c3ccccc3O)nc2c1 [Example 267] , tested on NaV 1.8 channel (Homo sapiens): > 10 µM
